Where do these numbers come from? They come from PubChem BioAssay AID1745853.

activity change, negative = inhibition by entry:
Target: Glycine N-methyltransferase (Homo sapiens)
Assay: Primary Screen for Target Class Profiling of Small Molecule Inhibitors of Methyltransferases; further: on the % scale 0 is the no-effect control and ±100 the full control effect
Settings: purified enzyme, MTase-Glo SAH luminescence; measured here: GNMT inhibition; at 40 µM; stronger effect = lower value
Screen size: about 25,000 compounds; about 970 (3.9%) were called active. About 8% were inconclusive and are not listed. Only a selection was taken, and actives are over-represented in it overall.
Provide only the numeric value, understood in %.

[[record]]
compound = "COC(=O)c1ncn2c1C(=O)N(Cc1ccc(OC)cc1)C(C)(C(=O)NCc1ccccc1)C2 (centres undefined)"
recorded_result = -10.1

[[record]]
compound = "NS(=O)(=O)c1ccc(F)c(C(=O)NCc2noc(-c3ccco3)n2)c1"
recorded_result = -7.86

[[record]]
compound = "Cc1ccc(Cn2c(=O)c3ccc(C(=O)NC(C)C)cc3n3c(=O)n(Cc4cccc(F)c4)nc23)cc1"
recorded_result = 4.35


Query compound follows.
Note down activity change, negative = inhibition recorded for C=C1C(=O)O[C@@H]2C[C@@]3(C)CCCC(=C)[C@]3(O)C[C@H]12
1.89

* * *

Target: Catechol O-methyltransferase (Homo sapiens) (UniProt P21964)
Sequence (P21964 whole entry, looked up): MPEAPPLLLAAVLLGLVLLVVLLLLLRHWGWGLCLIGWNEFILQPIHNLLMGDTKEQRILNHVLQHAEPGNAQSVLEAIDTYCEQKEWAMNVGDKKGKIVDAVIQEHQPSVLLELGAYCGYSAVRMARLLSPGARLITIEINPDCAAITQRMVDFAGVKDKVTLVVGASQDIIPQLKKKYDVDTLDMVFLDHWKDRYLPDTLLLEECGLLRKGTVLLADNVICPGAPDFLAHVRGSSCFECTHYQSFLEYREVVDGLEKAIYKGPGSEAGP
Assay: Primary Screen for Target Class Profiling of Small Molecule Inhibitors of Methyltransferases; further: on the % scale 0 is the no-effect control and ±100 the full control effect
Details: purified enzyme, MTase-Glo SAH luminescence; at 40 µM, stronger effect = lower value
Screen size: about 25,000 compounds; about 970 (3.9%) were called active. About 8% were inconclusive and are not listed. The sample holds actives, similar compounds and a random draw of the others, so the mix is not that of the screen.
measured.attribute: activity change, negative = inhibition

[[record]]
compound = "CC1CCCC(NC(=O)C2(C)Cn3c(nc4ccccc43)C(=O)N2Cc2ccc(Cl)cc2)C1C (stereo not drawn)"
measured_attribute = "activity change, negative = inhibition"
recorded_result = "1.59% (inactive)"

[[record]]
compound = "COc1ccccc1CN1C(=O)c2cc3sccc3n2CC1(C)C(=O)NC1CCCC(C)C1C (stereo not drawn)"
measured_attribute = "activity change, negative = inhibition"
recorded_result = "4.18% (inactive)"

[[record]]
compound = "CN(C)[C@@H]1C(=O)C(C(N)=O)=C(O)[C@@]2(O)C(=O)C3=C(O)c4c(O)ccc(Cl)c4[C@@H](O)[C@H]3C[C@@H]12"
measured_attribute = "activity change, negative = inhibition"
recorded_result = "-74.5% (active)"

[[record]]
compound = "Cn1ccc(Nc2cc3c(cn2)CN(CCc2ccccc2)CCN3)n1"
measured_attribute = "activity change, negative = inhibition"
recorded_result = "-9.44% (active)"

[[record]]
compound = "CC(C)Cn1c(=O)c2ccccc2n2c(CCC(=O)N3CCN(c4cccc(Cl)c4)CC3)nnc12"
measured_attribute = "activity change, negative = inhibition"
recorded_result = "-9.54% (active)"

[[record]]
compound = "C/C=C\\NC(=O)C1NC(=O)C(CC(N)=O)NC(=O)C(NC(=O)C(=O)C(C)CC)Cc2ccc(O)c(c2)-c2cccc3c2NC(=O)C3(O)C1O (stereo not drawn)"
measured_attribute = "activity change, negative = inhibition"
recorded_result = "-7.46% (inactive)"

[[record]]
compound = "COc1ccccc1N1CCN(C(=O)C[C@@H]2C[C@@H](C(C)C)[C@H](CO)C=C2C)CC1"
measured_attribute = "activity change, negative = inhibition"
recorded_result = "-4.58% (inactive)"


Let us move to another entry and its activity change, negative = inhibition.
Query activity change, negative = inhibition for Cc1nc2c(c(-c3ccc(O)cc3)n1)CN(C(=O)c1ccccc1C)CCC2
-2.56% (inactive)

* * *

# key: entry, value: activity change, negative = inhibition
Target: Nicotinamide N-methyltransferase (Homo sapiens) (UniProt P40261)
Sequence (P40261 whole entry, looked up): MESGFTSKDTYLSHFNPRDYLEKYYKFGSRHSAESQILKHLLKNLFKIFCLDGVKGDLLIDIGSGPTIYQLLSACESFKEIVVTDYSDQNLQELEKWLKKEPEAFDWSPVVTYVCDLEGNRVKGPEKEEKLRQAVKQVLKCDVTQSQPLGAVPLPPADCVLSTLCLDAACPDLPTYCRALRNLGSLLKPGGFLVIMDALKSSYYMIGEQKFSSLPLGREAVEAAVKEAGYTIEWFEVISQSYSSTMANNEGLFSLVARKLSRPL
Assay: Primary Screen for Target Class Profiling of Small Molecule Inhibitors of Methyltransferases; further: on the % scale 0 is the no-effect control and ±100 the full control effect
Conditions: purified enzyme, MTase-Glo SAH luminescence; measured here: NNMT inhibition; at 40 µM; stronger effect = lower value
Out of some 25,000 compounds screened, about 970 (3.9%) were called active. Roughly 8% stayed inconclusive and do not appear here. The list comes from a sample in which actives are over-represented; it also holds close analogues and randomly drawn compounds.
Provide the reading as a plain figure in %.

[[record]]
compound = "COCCn1c(=O)c(C(=O)N2CCN(C(C)=O)CC2)nc2cccnc21"
measured_attribute = "activity change, negative = inhibition"
recorded_result = -14

[[record]]
compound = "CC[C@@H](c1ccc(F)c(F)c1)n1c(C(=O)OC)c(-c2ccno2)[nH]c1=S"
measured_attribute = "activity change, negative = inhibition"
recorded_result = -18.4

[[record]]
compound = "O=C1Nc2ccc(O)cc2O[C@H]1O[C@@H]1O[C@H](CO)[C@@H](O)[C@H](O)[C@H]1O"
measured_attribute = "activity change, negative = inhibition"
recorded_result = -5.97


Give the measured activity change, negative = inhibition for COc1ccccc1CN[C@H]1[C@H](O)[C@@H](N2CCN(c3ccccc3OC)CC2)[C@@H]2OC[C@H]1O2
-0.669

For the compound COc1ccc(-c2nc3ccncc3[nH]2)cc1 , give its reported activity change, negative = inhibition.
-110

Give the reported value of activity change, negative = inhibition for this record: CCNC(=O)N1CC[C@H]2CC(=O)N(Cc3cccnc3)CC[C@H]2C1
-14.8

Read off the recorded activity change, negative = inhibition for CC(F)(F)CN1CCOc2c(nn(-c3ccccc3Cl)c2-c2ccc(Cl)cc2)C1=O
-49.1

Return activity change, negative = inhibition (reported value) for this compound: CC1CCCC(NC(=O)C2(C)Cn3c(nc4ccccc43)C(=O)N2Cc2ccc(Cl)cc2)C1C (stereo not given)
2.43

Tell me measured activity change, negative = inhibition for CC(C)CCN1CC2(CCCN(C(=O)c3ccn(C)c(=O)c3)C2)CCC1=O (stereo not given) please.
-17.7

Please give the documented activity change, negative = inhibition of O=C(NCc1ccc(Cl)cc1)c1cc(-c2ccc[nH]2)n[nH]1
-8.3

State its activity change, negative = inhibition for this compound: CCCn1c(=O)c2cc(Cl)ccc2n2c(SCC(=O)Nc3ccc(Cl)cc3)nnc12
-3.29

Fill in activity change, negative = inhibition for record C=C(C)Cn1c(=O)[nH]c2ccccc21
13.6

Look up and state reported activity change, negative = inhibition for CC1CCN(S(=O)(=O)c2ccc3c(ccn3CCC(=O)N3CCN(c4ccccn4)CC3)c2)CC1
-7.95

Assign activity change, negative = inhibition to the following record: COc1cccc(-c2nnc3n(CCc4ccccc4)c(=O)c4ccccc4n23)c1O
-3.08

Specify activity change, negative = inhibition for COc1ccc(C2Cn3nnc(-c4noc(C5CCC5)n4)c3CO2)cc1 (stereo not given) and stop.
-17.1

Give the measured activity change, negative = inhibition for Cc1ccc(Cn2c(=O)c3ccccc3n3c(CCC(=O)NCc4ccc5c(c4)OCO5)nnc23)cc1
-2.38

Return value of activity change, negative = inhibition for input CC(C)(C)c1ccc(S(=O)(=O)NCc2ccc(C(=O)Nc3cccnc3)cc2)cc1 , no commentary.
-14.6

Given the compound COC(=O)c1ncn2c1C(=O)N(Cc1cc(OC)ccc1OC)C(C)(C(=O)NCc1ccccc1)C2 (stereo not given) , write its reported activity change, negative = inhibition.
-4.11

Let me know recorded activity change, negative = inhibition for Cc1c(NC(=O)c2cc(C(N)=O)nc3cc(F)ccc23)c(C(F)(F)F)nn1Cc1ccc(C#N)cc1 , thanks.
-13.8

// fetch activity change, negative = inhibition given entry CCOC(=O)CC1(NC(=O)N2CCn3cccc3C2Cc2ccccc2)CCCCC1 (stereo not given)
-17.7

* * *

Target: Guanidinoacetate N-methyltransferase (Homo sapiens) (UniProt Q14353)
Test: Primary Screen for Target Class Profiling of Small Molecule Inhibitors of Methyltransferases; further: on the % scale 0 is the no-effect control and ±100 the full control effect
Conditions: purified enzyme, MTase-Glo SAH luminescence; measured here: GAMT inhibition; at 40 µM; stronger effect = lower value
The whole screen tested about 25,000 compounds, of which about 970 (3.9%) were called active. Inconclusive results (about 8%) are left out. This excerpt belongs to a sample that is enriched for actives.
measured.attribute: activity change, negative = inhibition (%)
// return numeric value only (unit: %, not printed)

# annotated cases, reported activity change, negative = inhibition shown
[[record]]
molecule = "CCn1cc(S(=O)(=O)N2CCC(C3CCN(C(=O)NC)CC3)C2)cn1 (centres undefined)"
tgt = "Guanidinoacetate N-methyltransferase (Homo sapiens) (UniProt Q14353)"
measured_attribute = "activity change, negative = inhibition"
value_unit = "%"
recorded_result = -5.14

[[record]]
molecule = "CC(C)(C)c1ccc(C(=O)Nc2cc(Cl)c(Br)cc2C(=O)O)cc1"
tgt = "Guanidinoacetate N-methyltransferase (Homo sapiens) (UniProt Q14353)"
measured_attribute = "activity change, negative = inhibition"
value_unit = "%"
recorded_result = -17.8

[[record]]
molecule = "COc1cc2c(cc1O)NC(=O)CC2c1cn[nH]c1-c1cc(C)ccc1C (centres undefined)"
tgt = "Guanidinoacetate N-methyltransferase (Homo sapiens) (UniProt Q14353)"
measured_attribute = "activity change, negative = inhibition"
value_unit = "%"
recorded_result = -38.7


Provide measured activity change, negative = inhibition value, entry: CC(C)n1c(=O)c2ccc(C(=O)NC3CCCCC3)cc2n2c(=O)n(CC(=O)NC3CCCCC3)nc12
-0.047

Please supply the value of reported activity change, negative = inhibition for the item CCCn1c(=O)c2ccc(C(=O)NC(C)CC)cc2n2c(=O)n(CC(=O)Nc3cc(C)cc(C)c3)nc12 (centres undefined)
5.41

Tell me its activity change, negative = inhibition given CC(C)(C)c1ccc(S(=O)(=O)NCc2ccc(C(=O)Nc3cccnc3)cc2)cc1 as the entry.
-2.21

Give the measured activity change, negative = inhibition for COc1ccccc1N1CCN(S(=O)(=O)c2cc3c(cc2C)n(C)c(=O)n3C)CC1
0

Respond only with activity change, negative = inhibition recorded for Cn1ccc(Nc2cc3c(cn2)CN(CCc2ccccc2)CCN3)n1
-12.2

Name the recorded activity change, negative = inhibition of the item CCCNC(=O)Cn1ccc2cc(S(=O)(=O)N3CCCCC3)ccc21 in your answer.
1.89
